- targetOrTestSystem: T1, human FGFR1 protein (ACRO Biosystems, Cat. No. FG1-H5223) (human, UniProt P11362-14 22-285)
- T1 construct: Bought recombinant protein; construct not described
- T1 sequence (looked up): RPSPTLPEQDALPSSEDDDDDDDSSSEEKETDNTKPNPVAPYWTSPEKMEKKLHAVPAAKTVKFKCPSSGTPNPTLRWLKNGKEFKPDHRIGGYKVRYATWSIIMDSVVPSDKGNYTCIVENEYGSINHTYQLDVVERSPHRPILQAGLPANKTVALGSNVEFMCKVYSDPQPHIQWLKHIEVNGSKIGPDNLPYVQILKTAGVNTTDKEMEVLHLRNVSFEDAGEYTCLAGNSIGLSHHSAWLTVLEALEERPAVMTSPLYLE
- testSummary: ELISA, FGFR1 coated
assayMetric: binding result

[[record]]
binder = "antibody D12D8 (murine chimeric anti-FGFR2 antibody) (antibody, human IgG1, kappa, V domains shown) VH: QVQLQQSGAELARPGASVKLSCKASGYTFTNYGISWVKQRTGQGLEWIGEIYPRSGNTYYNEKFKGKATLTADKSSSTAYMELRSLTSEDSAVYFCARGDYSNSDYWGQGTTLTVSS VL: DIQMTQTTSSLSASLGDRVTISCRASQDITDHLNWYQQKPDGTVKLLIYYTSRLHSGVPSRFSGSGSGTDYSLTISNLEQEDIATYFCQQGNTLPRTFGGGTKLEIKR"
assaymetric = "binding result"
readoutvalue = "no binding"

[[record]]
binder = "antibody F6B6 (murine chimeric anti-FGFR2 antibody) (antibody, human IgG1, kappa, V domains shown) VH: QVQLKQSGPGLVQPSQSLSITCTVSGFSLTNYGVHWVRQSPGKGLEWLGVIWSDGSTDYDAAFISRLSISTDNSKSQVFFKMNSLQAADTAIYYCARKGDYDYDNYAMDYWGQGTSVTVSS VL: DVVITQSPATLSVTPGDSVSLSCRASQSISNNLHWYQQKSHESPRLLIKYASQSISGIPSRFSGSGSGTDFTLSINSVETEDFGMYFCQQSNSWPLTFGAGTKLELKR"
assaymetric = "binding result"
readoutvalue = "no binding"

[[record]]
binder = "antibody A1B2 (murine chimeric anti-FGFR2 antibody) (antibody, human IgG1, kappa, V domains shown) VH: EVQLQQSGAELVRPGASVKLSCTASGFNIKDYYMHWVKQRPEQGLEWIGRIDPEDGDTEYAPKFQGKATMTADTSSNTAYLQLSSLTSEDTAVYYCTTYYYVSTYEDYWGQGTTLTVSS VL: QIVLTQSPAIMSASLGEEITLTCSASSSVSHMHWYQQKSGTSPKLLIYSTSNLASGVPSRFSGSGSGTFYSLTISSVEAEDAADYYCHHWSSWTFGGGTKLEIKR"
assaymetric = "binding result"
readoutvalue = "no binding"


src = patent EP4786494A1
